Molecular target: Short transient receptor potential channel 6 (Mus musculus)
Assay: activation of mouse TRPC6 channel, confirmation, selectivity assay for TRPC4 activator project, cell-based, HEK293, membrane potential dye, duplicate (AID 434950)
Details: HEK293 TRPC6, membrane potential fluorescence, at 10 µM
The source made the active and inactive calls.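 The calls were made as follows: active = membrane potential signal rise above negative control mean plus 3 SD in both duplicates, also active in the earlier TRPC4 screen; inactive = the rest.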
The reply should name one outcome from T (active), F (inactive)

Before answering, review these 8 worked examples.
compound=CCN1/C(=C\c2ccc3ccccc3[n+]2CC)Sc2cc(C)ccc21 label=F
compound=O=C(NCc1ccccc1)C1=C[C@H](c2ccc3c(c2)OCO3)C[C@H](OCc2ccc(CO)cc2)O1 label=F
compound="Cc1nc(NCC(c2ccccc2)N(C)C)c2c(C)c(C)sc2n1 (stereo not drawn)" label=F
compound="CN(C)C(CNC(=O)c1cnc(Cl)c(Cl)c1)c1ccccc1 (stereo not drawn)" label=T
compound=Cc1cc(Cl)cc(C)c1OCCCCn1ccnc1 label=T
compound="COC(=O)C1=NN(C(=O)c2ccc(C)cc2)C(O)(c2ccc(Cl)cc2)C1 (stereo not drawn)" label=T
compound=CCOc1ccccc1N(CC(=O)N1CCOCC1)S(=O)(=O)c1ccccc1 label=T
compound=COc1cc(OC)cc(C(=O)NC(=S)NNC(=O)[C@H]2C[C@@H]2c2ccccc2)c1 label=F

(Q) Check the results log: what was the call for Clc1ccc(COn2c(-c3ccc(Cl)cc3Cl)nc3ncccc32)cc1 ?
(A) T

(Q) Please let me know the test result on file for CCOC(=O)C1(CCc2ccccc2)CCN(Cc2ccc(O)cc2)CC1 .
(A) T

###

Target: Potassium voltage-gated channel subfamily KQT member 2 (Rattus norvegicus) (UniProt O88943)
Sequence (O88943 whole entry, looked up): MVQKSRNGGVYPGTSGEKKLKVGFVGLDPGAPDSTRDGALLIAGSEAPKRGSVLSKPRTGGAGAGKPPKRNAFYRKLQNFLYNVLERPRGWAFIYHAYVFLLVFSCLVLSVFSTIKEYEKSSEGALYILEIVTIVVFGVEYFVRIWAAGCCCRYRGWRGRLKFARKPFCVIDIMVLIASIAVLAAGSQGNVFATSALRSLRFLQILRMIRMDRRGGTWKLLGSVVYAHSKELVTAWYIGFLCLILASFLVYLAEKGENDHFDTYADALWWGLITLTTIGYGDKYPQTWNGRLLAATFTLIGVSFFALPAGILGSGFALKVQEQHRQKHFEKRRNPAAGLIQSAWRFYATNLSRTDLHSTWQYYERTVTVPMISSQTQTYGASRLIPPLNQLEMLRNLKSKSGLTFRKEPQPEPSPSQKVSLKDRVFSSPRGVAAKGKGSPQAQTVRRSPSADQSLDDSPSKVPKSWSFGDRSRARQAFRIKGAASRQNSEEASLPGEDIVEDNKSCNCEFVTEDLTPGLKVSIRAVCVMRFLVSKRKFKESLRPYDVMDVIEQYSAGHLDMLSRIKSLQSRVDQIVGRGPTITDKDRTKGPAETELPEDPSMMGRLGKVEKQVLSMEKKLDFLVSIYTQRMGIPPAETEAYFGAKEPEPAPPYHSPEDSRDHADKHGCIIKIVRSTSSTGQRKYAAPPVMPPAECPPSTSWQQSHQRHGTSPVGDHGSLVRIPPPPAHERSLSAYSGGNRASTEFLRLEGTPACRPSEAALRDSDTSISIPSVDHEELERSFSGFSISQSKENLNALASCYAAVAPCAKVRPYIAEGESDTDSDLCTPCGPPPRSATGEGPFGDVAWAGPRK
Assay: rat KCNQ2 channel potentiation, selectivity assay for KCNQ1 potentiator project, KCNQ2-CHO-K1 cells (AID 493009);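 also: assay conditions were tuned for KCNQ1 rather than KCNQ2 modulators; signal is max minus min fluorescence divided by baseline after thallium stimulus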
Settings: FluxOR thallium flux fluorescence, at 10 µM, scaled: buffer 0, activator control 100
Active and inactive are the calls of the source.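 Rule for the calls: active = mean duplicate potentiation above the buffer control mean plus 5 SD of buffer wells; inactive = the rest.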
A correct response names exactly one class from t = active, f = inactive

compound="O=C(O)C(c1ccccc1)N1C(=O)/C(=C\\c2ccc(-c3ccc(Br)cc3)o2)SC1=S (stereo unspecified)" label=f

(Q) Call for entry Cc1cc2n(n1)SC(Nc1ccc(F)c(Cl)c1)N2 (stereo unspecified) :
(A) f

(Q) Outcome logged for Cc1ccc2nc(NC(=S)NC(=O)c3cccs3)sc2c1 in this assay:
(A) t

(Q) Assay outcome for Cc1nc(NCCc2cnc[nH]2)c2oc3ccccc3c2n1 : what was it?
(A) f

(Q) In this assay, the call recorded for C1=Nc2ccccc2CN1c1ccccc1 was what?
(A) f

(Q) Each compound tested received a call. Report the one for C/C(=C/CCC(C)[C@H]1CC[C@@]2(C)C3=C(CC[C@]12C)[C@@]1(C)CCC(=O)C(C)(C)[C@@H]1CC3)C(=O)O (stereo partly specified) .
(A) t

###

Target: Short transient receptor potential channel 4 (Mus musculus)
Assay: TRPC4 positive allosteric modulators, dose response, cell-based, HEK293 TRPC4/mu-opioid, Fluo-4 calcium, EC20 DAMGO (AID 434941);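 also: calcium entry triggered by an EC20 dose of DAMGO at the co-expressed mu-opioid receptor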
Conditions: HEK293 TRPC4/mu-opioid cells, Fluo-4 calcium fluorescence; series mostly up to 20 µM
Potency and affinity values are given separately. Active and inactive are the calls of the source.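 Rule for the calls: active = earlier screen potentiator hit that boosts the TRPC4 ion channel at some dose, with a dose response; inactive = no potentiation, no dose response, or not a prior hit.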
endpoint-label: outcome

# example entries with known answers
molecule=Cc1ccc2c(nc3s/c(=C\c4ccc(-c5ccccc5C(=O)O)o4)c(=O)n32)c1C experimental_target="Short transient receptor potential channel 4 (Mus musculus)" result=inactive
molecule="CC(Oc1ccc(Cl)cc1)C(=O)NNC(=S)NC(=O)c1ccco1 (stereo not given)" experimental_target="Short transient receptor potential channel 4 (Mus musculus)" result=inactive
molecule=COc1ccc(-n2cc(CNCCc3ncc(C)[nH]3)c(-c3ccccc3Cl)n2)cc1 experimental_target="Short transient receptor potential channel 4 (Mus musculus)" result=inactive
molecule="Cc1nc(NCC(c2ccccc2)N(C)C)c2c(C)c(C)sc2n1 (stereo not given)" experimental_target="Short transient receptor potential channel 4 (Mus musculus)" result=inactive
molecule=Cc1sc2ncnc(NCC(C)(C)N3CCOCC3)c2c1C experimental_target="Short transient receptor potential channel 4 (Mus musculus)" result=inactive

(Q) Output reported outcome of the molecule CCOc1ccccc1OCC(=O)Nc1cc(S(=O)(=O)N2CCCCC2)ccc1N1CCN(CC)CC1 on Short transient receptor potential channel 4 (Mus musculus).
(A) inactive

###

Experiment: calcium flux activation in mu-opioid HEK293 cells, confirmation, counter-screen for TRPC4 activator project, cell-based, HEK293 mu-opioid receptor line (AID 449723);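 also: counter screen cells carry the mu-opioid receptor alone and lack TRPC4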
Settings: Fluo-4 calcium fluorescence, at 10 µM; active compounds read high
Activity calls are given as the source filed them.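 Rule for the calls: active = hit in primary screen, with calcium signal over 5 SD above buffer well mean in both duplicates; inactive = the rest.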
endpoint-label: activation

Some solved cases for reference:
compound=O=C(Cn1c(-c2ccccc2)c[n+]2ccsc12)c1ccc(Br)cc1 endpoint_label=activation result=inactive
compound=O=C(C[n+]1cc2ccccc2c2ccccc21)c1ccccc1 endpoint_label=activation result=inactive
compound=Cc1ccc(C(=O)NNC(=S)NC(=O)c2ccc(Cl)cc2)cc1 endpoint_label=activation result=inactive
compound="COc1ccc(Cl)cc1NC(=O)CNCC(c1ccccc1)N(C)C (centres undefined)" endpoint_label=activation result=inactive

(Q) Quickly give me recorded activation for CCN(c1ccccc1)S(=O)(=O)c1ccc(C(=O)N(CCCN(C)C)c2nc3cc4c(cc3s2)OCO4)cc1
(A) inactive

(Q) Report activation for Cc1c(C(=O)N(Cc2cccs2)C2CCS(=O)(=O)C2)oc2ccccc12 (centres undefined)
(A) inactive

(Q) Input Cc1ccc(/C=N\NC(=O)C2COc3cc4ccccc4cc3O2)o1 (centres undefined) , output reported activation.
(A) inactive

(Q) Supply recorded activation for CCn1c(SCC(=O)c2cc(C)n(CC3CCCO3)c2C)nc2ccccc21 (centres undefined) here.
(A) inactive

(Q) Entry CCCCC(c1nnnn1CC1CCCO1)N1CCN(Cc2ccccc2)CC1 (centres undefined) needs its activation filled in; supply it.
(A) inactive

###

System: TRPC4 beta (transient receptor potential cation channel C4), mouse
Assay: activators of mouse TRPC4 channel, confirmation, cell-based, Fluo4 calcium, HEK293 TRPC4beta/mu-opioid, duplicates, 10 µM (AID 2426)
Settings: Fluo4 calcium fluorescence, at 10 µM
Activity calls are given as the source filed them.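 Rule for the calls: active = fluorescence ratio normalized to control raised more than 50% in primary screen plus both repeat runs; inactive = the rest.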
I would appreciate it if you answered using one of these outcomes: Y = active, N = inactive

For orientation, consider the following solved cases.
molecule=C/C=C(\C)CN1CCC(n2nccc2NC(=O)CCc2ccccc2)CC1 experimental_target="TRPC4 beta (transient receptor potential cation channel C4), mouse" label=N
molecule="COc1cc(OC)cc(C(=O)N[C@H](C(=O)OCC(=O)NC(C)c2ccccc2)C(C)C)c1 (stereo not given in full)" experimental_target="TRPC4 beta (transient receptor potential cation channel C4), mouse" label=Y
molecule=CCCOc1ccc(C(=O)NC(=S)NNC(=O)c2c(-c3ccccc3)noc2C)cc1 experimental_target="TRPC4 beta (transient receptor potential cation channel C4), mouse" label=Y
molecule=CCOC(=O)C1(CCc2ccccc2)CCN(Cc2ccc(O)cc2)CC1 experimental_target="TRPC4 beta (transient receptor potential cation channel C4), mouse" label=N
molecule=COc1ccc(C(=O)NC(=S)NNC(=O)c2c(-c3ccccc3)noc2C)cc1OC experimental_target="TRPC4 beta (transient receptor potential cation channel C4), mouse" label=N

Continue with the next molecule.
(Q) Please let me know the test result on file for Cc1onc(-c2ccccc2)c1C(=O)NNC(=S)NC(=O)c1ccc(F)cc1 .
(A) Y

###

Target: Potassium voltage-gated channel subfamily KQT member 2 (Rattus norvegicus) (UniProt O88943)
Experiment: rat KCNQ2 channel potentiation, selectivity assay for KCNQ1 potentiator project, KCNQ2-CHO-K1 cells (AID 493009);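 also: assay conditions were tuned for KCNQ1 rather than KCNQ2 modulators; signal is max minus min fluorescence divided by baseline after thallium stimulus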
Conditions: FluxOR thallium flux fluorescence, at 10 µM, scaled: buffer 0, activator control 100
Active and inactive are the calls of the source.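 Rule for the calls: active = mean duplicate potentiation above the buffer control mean plus 5 SD of buffer wells; inactive = the rest.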
Result category, one only: active, inactive

(Q) Fill in: this test's call for Cc1ccc(C(=O)N2CCNC(=O)C2CC(=O)Nc2ccc(F)cc2)cc1C (stereo unspecified) is ___
(A) inactive

(Q) Outcome? O=C(Nc1nc2c(Br)cc(Br)cc2c(=O)s1)C1CCC1
(A) active

(Q) Lab log entry: CCOC(=O)c1cc(C)sc1NC(=O)CN1CCN(C(=O)c2ccco2)CC1 — outcome as called in the assay?
(A) inactive

(Q) What call does the record list for O=C(Nc1nnc(-c2ccco2)o1)c1ccc(Cl)cc1 ?
(A) active

(Q) Name the outcome recorded for COc1cc(OC)cc(C(=O)NC(=S)N2CCCCCC2)c1 in the assay.
(A) active

(Q) // param item: CCOc1ccc(NC(=O)C2CCN(S(=O)(=O)c3cccnc3)CC2)cc1 ; yields the recorded call
(A) inactive

###

Biological target: Potassium voltage-gated channel subfamily KQT member 1 (Homo sapiens) (UniProt P51787)
Sequence (P51787 whole entry, looked up): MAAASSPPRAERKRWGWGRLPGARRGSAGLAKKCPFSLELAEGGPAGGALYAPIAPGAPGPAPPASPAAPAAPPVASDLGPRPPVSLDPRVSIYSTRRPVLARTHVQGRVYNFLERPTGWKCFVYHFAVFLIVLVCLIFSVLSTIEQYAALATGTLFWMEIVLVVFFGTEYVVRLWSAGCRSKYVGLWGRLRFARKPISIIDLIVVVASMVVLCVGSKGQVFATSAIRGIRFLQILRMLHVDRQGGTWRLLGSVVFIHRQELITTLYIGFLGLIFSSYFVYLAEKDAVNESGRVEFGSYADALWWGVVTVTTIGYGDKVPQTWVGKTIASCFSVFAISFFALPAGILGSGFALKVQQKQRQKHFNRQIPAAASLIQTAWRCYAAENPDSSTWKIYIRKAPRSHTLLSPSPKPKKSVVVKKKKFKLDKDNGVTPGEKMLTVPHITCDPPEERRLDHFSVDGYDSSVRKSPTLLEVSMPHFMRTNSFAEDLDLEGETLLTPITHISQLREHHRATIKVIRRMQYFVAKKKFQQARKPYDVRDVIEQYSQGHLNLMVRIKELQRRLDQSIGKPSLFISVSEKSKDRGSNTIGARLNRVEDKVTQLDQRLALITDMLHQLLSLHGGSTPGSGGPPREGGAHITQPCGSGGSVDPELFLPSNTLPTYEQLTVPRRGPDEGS
Experiment: KCNQ1 potassium channel potentiators, confirmation, FluxOR thallium flux, CHO cells, duplicates (AID 493007)
Conditions: KCNQ1 cell line, FluxOR thallium flux fluorescence, at 10 µM, % of reference activator effect, buffer zero
Active and inactive are the calls of the source.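 Rule for the calls: active = potentiation averaged over duplicate wells exceeding buffer-only control mean by more than 3 SD; inactive = the rest.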
Please reply with one of these outcomes: active, inactive

(Q) Write down the call the test reported for this molecule. Item: COc1ccc2nc(N3C(=O)/C(=C/c4ccccc4)NC3=S)sc2c1
(A) active
